The reported numbers originate from ChEMBL document CHEMBL5506069.

- Test system: Candida albicans
- measurement notes: Antifungal activity against Candida albicans ATCC 90023 assessed as inhibition of fungal growth incubated for 24 hrs by CLSI based microbroth dilution method
- Format: functional
Binarize MIC at 20 µM; below is 1, at or above is -1.

Record excerpt, results attached:
compound structure string | class label
CCN1C(=O)c2cccc3c(N/N=C/c4ccc([N+](=O)[O-])o4)ccc(c23)C1=O | -1
CCCCCn1c(CCCC)nc(Cl)c1/C=N/Nc1ccc2c3c(cccc13)C(=O)N(CCO)C2=O | -1
NNc1ccc2c3c(cccc13)C(=O)N(CCO)C2=O | -1

Task: Lab log: compare recorded MIC with 20 µM; is it strictly lower for `C[n+]1ccc(/C=N/Nc2ccc3c4c(cccc24)C(=O)N(CCO)C3=O)cc1` ?
Result: 1

Task: Determine if `O=C1c2cccc3c(N/N=C/c4cc(Cl)ccc4O)ccc(c23)C(=O)N1CCO` shows MIC strictly lower than 20 µM.
Result: -1

Task: Please check: MIC for `O=C1c2cccc3c(N/N=C/c4cnc(-c5ccccc5)s4)ccc(c23)C(=O)N1CCO` , strictly under 20 µM or not?
Result: -1

Task: Is the reported MIC for `C#CCN1C(=O)c2cccc3c(N/N=C(\C)Cn4c([N+](=O)[O-])cnc4C)ccc(c23)C1=O` strictly below 20 µM?
Result: -1

Task: Identify whether the compound `O=C1c2cccc3c(N/N=C/c4ccncc4)ccc(c23)C(=O)N1CCO` records MIC below 20 µM.
Result: -1
